Tested on: Fibroblast
Assay Method Text: Multiplex assay against human fibroblast
Assay type: toxicity, cell-based
Run Conditions: 24 h, 1 µM, compound concentration 1 uM, replicate 1
In this section we review reported Population Apoptotic (%) values for a set of molecules.
Property: Population Apoptotic (%)

* CCNc1cc(N[C@H]2CC[C@H](O)CC2)nc(Nc2ccc3c(ccn3Cc3ccccc3)c2)n1 | 76
* Cc1cn(-c2cc(NC(=O)c3ccc(C)c(Nc4nccc(-c5cccnc5)n4)c3)cc(C(F)(F)F)c2)cn1 | 56
* O=C1N/C(=N/c2ccccc2F)S/C1=C\c1ccc(C(=O)O)cc1 | 55
* COc1cc(N2CCN(C)CC2)ccc1Nc1ncc2c(n1)N(C)c1ccccc1C(=O)N2C | 60
* O=C(Cc1ccc(-c2ccc(OCCN3CCOCC3)cc2)cn1)NCc1ccccc1 | 57
* CCn1c(=O)c(-c2ccc(-c3cncs3)cc2Cl)cc2cnc(Nc3ccc(N4CCN(C)CC4)cc3)nc21 | 58
* NC(=O)c1cccc(-c2cc(Nc3ccc(OC(F)(F)F)cc3)ncn2)c1 | 60
* CN(C)C(=O)C(CCN1CCC(O)(c2ccc(Cl)cc2)CC1)(c1ccccc1)c1ccccc1.Cl [LOPERAMIDE HYDROCHLORIDE] | 45
* CN1C2CCC1CC(OC(c1ccc(F)cc1)c1ccc(F)cc1)C2.Cl (centres undefined) | 53

###

Tested on: U2OS
Assay Method Text: Multiplex assay against U2OS
Type: toxicity, cell-based
Run Conditions: human, 24 h, 10 µM, compound concentration 10 uM, replicate 1
Could you mark each record Satisfied if its Population Mitotic Cells (%) falls strictly under 40%, and Not satisfied if it equals or exceeds it?

* CCN1CCN(c2ccc(Nc3cc(N(C)C(=O)Nc4c(Cl)c(OC)cc(OC)c4Cl)ncn3)cc2)CC1 | Not satisfied
* O=C1N/C(=N/c2ccccc2F)S/C1=C\c1ccc(C(=O)O)cc1 | Not satisfied
* CN1CCC(=C2c3ccccc3CC(=O)c3sccc32)CC1.O=C(O)/C=C/C(=O)O [KETOTIFEN FUMARATE] | Satisfied
* Cl.O=c1c2cccn2c2ccccc2n1CCCN1CCC(c2ccc(Cl)cc2)CC1 | Satisfied
* CCCn1c(=O)c2[nH]c(-c3cnn(Cc4cccc(C(F)(F)F)c4)c3)nc2n(CC)c1=O | Satisfied
* CCOc1cc(C(=O)N2CCC(N3CCN(C)CC3)CC2)ccc1Nc1ncc2c(n1)N(C1CCCC1)c1ccccc1C(=O)N2C | Satisfied
* CCc1cccc(CC)c1NC(=O)c1nn(C)c2c1CCc1cnc(Nc3ccc(C(=O)NC4CCN(C)CC4)cc3OC(F)(F)F)nc1-2 | Not satisfied
* CCCS(=O)(=O)Nc1ccc(F)c(C(=O)c2c[nH]c3ncc(Cl)cc23)c1F | Not satisfied
* Cc1cc(C)c(S(=O)(=O)N(Cc2ccc(-c3cccc(S(C)(=O)=O)c3)cc2)Cc2ccc(C(F)(F)F)o2)c(C)c1 | Not satisfied

###

In this section we review reported Population Hoechst High Intensity Objects (%) values for a set of molecules.
System: Fibroblast
Assay Method Text: Multiplex assay against human fibroblast
Format: toxicity, cell-based
Run Conditions: 48 h, 10 µM, compound concentration 10 uM, replicate 2
Property: Population Hoechst High Intensity Objects (%)

- Cc1cc(C)c(S(=O)(=O)N(Cc2ccc(-c3cccc(S(C)(=O)=O)c3)cc2)Cc2ccc(C(F)(F)F)o2)c(C)c1: 12%
- CCOc1cc2ncc(C#N)c(Nc3ccc(OCc4ccccn4)c(Cl)c3)c2cc1NC(=O)/C=C/CN(C)C: 48%
- O=C(Nc1ccc(Cl)cc1)Nc1cccc(-c2cccc(N3CCCC3)n2)c1: 63%
- CCCn1c(=O)c2[nH]c(-c3cnn(Cc4cccc(C(F)(F)F)c4)c3)nc2n(CC)c1=O: 11%
- Cl.O=C(c1ccc(Nc2nccc(-c3cc4ccccc4s3)n2)cc1)N1CCC(N2CCCC2)CC1: 50%
- Cl.Oc1ccc2c3c1O[C@H]1c4[nH]c5c(c4C[C@@]4(O)[C@@H](C2)N(CC2CC2)CC[C@]314)C[C@@]1(O)[C@H]2Cc3ccc(O)c4c3[C@@]1(CCN2CC1CC1)[C@H]5O4: 10%
- O=C(Nc1ccc(-c2ccnc(Nc3ccc(N4CCOCC4)cc3)n2)cc1)[C@@H]1CCCN1: 6%
- COc1cc(N2CCN(C)CC2)ccc1Nc1ncc2c(n1)N(C)c1ccccc1C(=O)N2C: 18%
- CCn1c(=O)c(-c2ccc(-c3cncs3)cc2Cl)cc2cnc(Nc3ccc(N4CCN(C)CC4)cc3)nc21: 11%
- COCC(=O)NC/C=C/c1ccc2ncnc(Nc3ccc(Oc4ccc(C)nc4)c(C)c3)c2c1: 8%
- Cc1ccc(C(=O)Nc2cccc(C(F)(F)F)c2)cc1Nc1nc(-c2cccnc2)nc2c1cnn2C: 25%
- S=C(NCCCc1c[nH]cn1)NCCCN(Cc1ccc(Cl)c(Cl)c1)c1ccc(Br)cn1: 33%
- CCOc1cc(C(=O)N2CCC(N3CCN(C)CC3)CC2)ccc1Nc1ncc2c(n1)N(C1CCCC1)c1ccccc1C(=O)N2C: 32%
- CN1C2CCC1CC(OC(c1ccc(F)cc1)c1ccc(F)cc1)C2.Cl (stereo unspecified): 16%
- CN1CCC(=C2c3ccccc3CC(=O)c3sccc32)CC1.O=C(O)/C=C/C(=O)O [KETOTIFEN FUMARATE]: 23%
- CCN1CCN(Cc2ccc(Nc3ncc(F)c(-c4cc(F)c5nc(C)n(C(C)C)c5c4)n3)nc2)CC1.CS(=O)(=O)O: 53%
